Measured IC50, listed per entry.
- target_or_system: acetylcholinesterase (AChE) (Mus musculus)
- Construct: The supernatant obtained was used as a source of enzyme for
- Sequence (P21836 32-614): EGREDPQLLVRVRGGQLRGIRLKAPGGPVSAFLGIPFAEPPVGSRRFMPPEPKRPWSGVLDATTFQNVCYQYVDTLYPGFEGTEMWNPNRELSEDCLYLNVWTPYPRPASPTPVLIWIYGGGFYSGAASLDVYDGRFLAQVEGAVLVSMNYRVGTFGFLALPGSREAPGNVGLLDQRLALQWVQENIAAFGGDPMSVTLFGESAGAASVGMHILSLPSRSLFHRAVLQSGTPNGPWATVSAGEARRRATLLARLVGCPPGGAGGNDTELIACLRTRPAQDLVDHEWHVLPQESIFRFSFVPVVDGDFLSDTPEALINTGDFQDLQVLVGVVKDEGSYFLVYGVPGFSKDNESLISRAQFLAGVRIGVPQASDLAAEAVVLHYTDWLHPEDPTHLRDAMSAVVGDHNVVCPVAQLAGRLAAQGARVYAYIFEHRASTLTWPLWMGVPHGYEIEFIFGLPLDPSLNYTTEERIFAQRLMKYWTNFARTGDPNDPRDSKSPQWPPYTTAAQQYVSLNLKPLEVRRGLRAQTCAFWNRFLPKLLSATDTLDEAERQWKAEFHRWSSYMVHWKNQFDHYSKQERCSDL
- test_details: Acetylcholinesterase inhibition assay (Ellman, mouse whole brain homogenate)
- condition_description: ±SD
All answers are understood in µM, so give the number only.

Answered cases to consult:
> print(dat)
                            compound.string                          target.or.system  measured.value
1       O=C1/C(=C/c2ccc(O)cc2)Oc2cc(O)ccc21  acetylcholinesterase (AChE) (Mus musculus)             202
2  COc1ccc(/C=C2\Oc3cc(OCCCCN4CCCC4)ccc3C2=O)cc1  acetylcholinesterase (AChE) (Mus musculus)            1.42

Moving on to another compound below.
## Input Answer with reported IC50 of `CCN(CC)CCOc1ccc2c(c1)O/C(=C\c1ccccc1OC)C2=O`
## Output 2.67
